Hey, just so you know, these numbers are from the DeepSol protein solubility set.

test: soluble on expression in E. coli; label from the status in PepcDB or PDB records
testReadout: soluble on expression in E. coli

1) SLPHPAPGPADAEDPRLAEVMAAVRSSRRYQSVAPETVRRLAANALVASRGDLAEAVKRTKRSLHEVFGAYLPSPPKYDALLRQLRDAVDAGDDEAVRAVLHRAMSTHASTRERLPILEEFYREVFARLDAPTSVRDLACGMNPLAAPWMPGSDAFTYHASDIDTRLTEFLAAALETLGVAHDVRVRDLMTGVGEVATDVTLLLKTLPCIEAQGRGQGWDLIDAIRSPVVVVSFPTKSLGQRSKGMFNTYSANFGAWLENRPHDVEQVEFRNELVYFVRKNA | soluble
2) MEYLNVAEIKALLNSTISKLNPRYTSNYMIVTAILTGARLSEIAGLTWNDINFNFNTININKSYDYFAKSFKPTKNKSSNRIIKINNTLCDVLKELRTNNTDLVFKNKRGLIPTSNAVNKALRARLEELNINRRNFHFHSLRHSHVAFLLSQGIDIYPIAQRLGHSDITTTTRTYAYLIEEYKDKNDAIIIAGLDKLEHHHHHH | soluble
3) MAHHHHHHMGTLEAQTQGPGSMGTSQEFETSSLKTLPLYELHEKAGAKFGAFAGWRMPLTYPLGVLKEHLHTRAHAGLFDISHMKLIAVEGPKAVEFLSYALPVDAALLKIGQSRYSYLLNERAGILDDLILTRLAECRFMLVANAGNAQADFAELEKRAFGFECQVIALERVLLALQGPQAAAVLADAGLPGNELLFMQGFEPQQDWFITRSGYTGEDGFEIALPIGCARALAEKLLGDSRVEWVGLAARDSLRLEAGLCLHGNDITPDTTPIDAALTWAVPKNVREKAQFYGAKAFLESLQKGPSRCRVGLKPQTRQPIRAGAVLFDNEGNRIGVVTSGGFGPSFDGPVAMGYVPVAWKVEGTEVFTELRGKKIALSVHSLPFVEQRYFKG | soluble
